- PROTOCOL_NOTES: Solubility analysis (in water)
- Assay type: physicochemical
- TEST_PARAMETERS: 25 °C, thermodynamic from solid
- Protocol: This was measured by suspending enough Compound I in 0.25 mL of solvent (water) to give a maximum final concentration of ≧10 mg/ml of the parent free form of the compound. […] Quantitation was by HPLC (Table XI) with reference to a standard, diluted and undiluted tests were injected. The solubility was calculated by integration of the peak area found at the same retention time as the peak maximum in the standard injection. […]
OUTCOME_MEASURE: solubility at 24 h

COMPOUND: NC(=O)c1ccc(N(C(N)=O)c2c(F)cccc2F)nc1-c1ccc(F)cc1F [Form C]
ASSAY_VALUE: ≥ 20 µg/mL

###

- PROTOCOL_NOTES: Apparent (non-equilibrium) solubilities of Form C in various solvents
- Type: physicochemical
- TEST_PARAMETERS: organic solvent or mixture, thermodynamic from solid; apparent, Ethanol

COMPOUND: NC(=O)c1ccc(N(C(N)=O)c2c(F)cccc2F)nc1-c1ccc(F)cc1F [Form C]
VALUE_UNITS: mg/mL
solubility: 50

###

- PROTOCOL_NOTES: Apparent (non-equilibrium) solubilities of Form C in various solvents
- Format: physicochemical
- TEST_PARAMETERS: organic solvent or mixture, thermodynamic from solid; apparent, Acetonitrile

COMPOUND: NC(=O)c1ccc(N(C(N)=O)c2c(F)cccc2F)nc1-c1ccc(F)cc1F [Form C]
solubility: 33 mg/mL

###

- PROTOCOL_NOTES: Apparent (non-equilibrium) solubilities of Form C in various solvents
- Type: physicochemical
- TEST_PARAMETERS: organic solvent or mixture, thermodynamic from solid; apparent, Methanol

MOLECULE: NC(=O)c1ccc(N(C(N)=O)c2c(F)cccc2F)nc1-c1ccc(F)cc1F [Form C]
VALUE_UNITS: mg/mL
solubility: 100

###

- PROTOCOL_NOTES: Apparent solubilities of Form A at room temperature and at 60° C.
- Type: physicochemical
- TEST_PARAMETERS: organic solvent or mixture, thermodynamic from solid, room temperature, Acetone
OUTCOME_MEASURE: solubility (µg/mL)

COMPOUND: NC(=O)c1ccc(N(C(N)=O)c2c(F)cccc2F)nc1-c1ccc(F)cc1F [Form A]
OUTCOME_MEASURE: solubility
ASSAY_VALUE: 6400
